- assay.summary: Metabolic stability in CD-1 mouse liver microsomes assessed as parent compound remaining at 0.3 uM and measured after 1 hrs
- Format: ADME, Microsome
- settings: read-out: Stability
result.type: remaining at 1 h, 0.3 µM

Exam item: Which remaining at 1 h, 0.3 µM is listed for `Cn1cnc(COC(=O)N[C@H]2CCc3c2cn(C)c3C(=O)Nc2ccc(F)c(Cl)c2)n1` ?
Marked response: 81%

Exam item: Which remaining at 1 h, 0.3 µM is listed for `Cn1cnc(COC(=O)N[C@H]2CCc3c(C(=O)Nc4ccc(F)c(Cl)c4)ccc(F)c32)n1` ?
Marked response: 56%

###

Below, each entry is listed with its recorded microsomal CLint at 1 h, 0.3 µM.
- assay.summary: in vitro
- settings: CD-1, mouse, liver microsomes
- Description: Metabolic stability in CD-1 mouse liver microsomes assessed as intrinsic clearance at 0.3 uM per mg of protein upto 1 hrs
Numeric only. Scale: µL/min/mg

Study these solved cases before continuing.
structure.string	recorded.measurement
Cn1c(Cl)c2c(c1C(=O)Nc1ccc(F)c(Cl)c1)CC[C@@H]2NC(=O)OCc1nc[nH]n1	29.7
Cn1cnc(COC(=O)N[C@H]2CCc3c2c(Cl)n(C)c3C(=O)Nc2ccc(F)c(Cl)c2)n1	33.8
Cn1cc2c(c1C(=O)Nc1ccc(F)c(Cl)c1)CC[C@@H]2NC(=O)OCc1nc[nH]n1	12.3

Exam item: Which microsomal CLint at 1 h, 0.3 µM is listed for `Cn1cnc(COC(=O)N[C@H]2CCc3c2cn(C)c3C(=O)Nc2ccc(F)c(Cl)c2)n1` ?
Marked response: 12.2

Exam item: Which microsomal CLint at 1 h, 0.3 µM is listed for `Cn1c(Cl)c2c(c1C(=O)Nc1ccc(F)c(Cl)c1)CC[C@@H]2NC(=O)OCc1c[nH]nn1` ?
Marked response: 20.2

###

- assay.summary: Metabolic stability in human liver microsomes assessed as parent compound remaining at 0.3 uM and measured after 1 hrs
- Assay type: ADME, Microsome
- settings: read-out: Stability
Below, each entry is listed with its recorded remaining at 1 h, 0.3 µM.
Numeric only. Scale: %

structure.string	result.type	units.symbol	recorded.measurement
Cn1cnc(COC(=O)N[C@H]2CCc3c(C(=O)Nc4ccc(F)c(Cl)c4)ccc(F)c32)n1	remaining at 1 h, 0.3 µM	%	83

Exam item: Which remaining at 1 h, 0.3 µM is listed for `Cn1cnc(COC(=O)N[C@H]2CCc3c2cn(C)c3C(=O)Nc2ccc(F)c(Cl)c2)n1` ?
Marked response: 87

###

- assay.summary: Half life in CD-1 mouse at 10 mg/kg, po or 2 mg/kg, iv
- Format: ADME, organism-based
- settings: in vivo
Below, each entry is listed with its recorded half-life.
Numeric only. Scale: h

Study these solved cases before continuing.
structure.string	units.symbol	half-life
Cn1cnc(COC(=O)N[C@H]2CCc3c2cn(C)c3C(=O)Nc2ccc(F)c(Cl)c2)n1	h	2.6
Cn1cc2c(c1C(=O)Nc1ccc(F)c(Cl)c1)CC[C@@H]2NC(=O)OCc1c[nH]nn1	h	5.8

Exam item: Which half-life is listed for `Cn1cc2c(c1C(=O)Nc1ccc(F)c(Cl)c1)CC[C@@H]2NC(=O)OCc1nc[nH]n1` ?
Marked response: 4.8

Exam item: Which half-life is listed for `Cn1c(Cl)c2c(c1C(=O)Nc1ccc(F)c(Cl)c1)CC[C@@H]2NC(=O)OCc1c[nH]nn1` ?
Marked response: 3.5

Exam item: Which half-life is listed for `Cn1cnc(COC(=O)N[C@H]2CCc3c(C(=O)Nc4ccc(F)c(Cl)c4)ccc(F)c32)n1` ?
Marked response: 2.5
